Target: RhSA (Macaca mulatta, UniProt Q28522)
Sequence (Q28522 17-600): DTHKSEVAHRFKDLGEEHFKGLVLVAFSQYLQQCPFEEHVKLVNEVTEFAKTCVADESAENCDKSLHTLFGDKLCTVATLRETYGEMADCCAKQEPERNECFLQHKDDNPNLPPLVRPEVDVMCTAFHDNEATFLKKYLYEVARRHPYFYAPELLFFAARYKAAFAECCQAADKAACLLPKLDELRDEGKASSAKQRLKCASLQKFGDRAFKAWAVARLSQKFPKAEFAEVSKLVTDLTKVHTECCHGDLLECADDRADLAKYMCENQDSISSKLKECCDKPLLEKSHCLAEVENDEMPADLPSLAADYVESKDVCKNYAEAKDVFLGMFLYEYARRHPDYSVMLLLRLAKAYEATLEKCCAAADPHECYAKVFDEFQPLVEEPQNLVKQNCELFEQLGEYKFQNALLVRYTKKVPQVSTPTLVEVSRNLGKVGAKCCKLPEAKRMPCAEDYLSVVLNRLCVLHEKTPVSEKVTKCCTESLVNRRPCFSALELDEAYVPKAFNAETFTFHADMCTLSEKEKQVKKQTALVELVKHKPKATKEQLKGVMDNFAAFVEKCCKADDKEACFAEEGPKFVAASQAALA
Experiment: Biacore kinetics of SABAs on immobilized serum albumin: RhSA
Assay type: binding, rhesus
Conditions: target RhSA
metric name: Kd

Below: 3 molecules and their reported Kd.
{"molecule": "SABA4: SABA core with a scaffold mutation; same BC, DE, FG loops as SABA5; in Table 5 stands for SABA4.1 (protein) EMVAATPTSLLISWEDDSYYSRYYRITYGETGGNSPVQEFTVPSDLYTATISGLKPGVDYTITVYAVTYDVTDLIMHEPISINYRT", "metric name": "Kd", "measured": "> 1000 nM"}
{"molecule": "SABA3: SABA core sequence from PROfusion; in Table 5 stands for SABA3.1 (protein) EVVAATPTSLLISWSNDGPGLSYYRITYGETGGNSPVQEFTVPSSQTTATISGLKPGVDYTITVYAVSYYTKKAYSAGPISINYRT", "metric name": "Kd", "measured": "431 nM"}
{"molecule": "SABA1: serum albumin binding 10Fn3 core sequence, SEQ ID NO: 4; in Table 5 stands for SABA1.1 (protein) EVVAATPTSLLISWHSYYEQNSYYRITYGETGGNSPVQEFTVPYSQTTATISGLKPGVDYTITVYAVYGSKYYYPISINYRT", "metric name": "Kd", "measured": "778 nM"}

Okay, now this molecule:
Enquiry: Read off the recorded Kd for SABA2: SABA core sequence from PROfusion; in Table 5 stands for SABA2.1 (protein) EVVAATPTSLLISWPKYDKTGHYYRITYGETGGNSPVQEFTVPTRQTTATISGLKPGVDYTITVYAVSKDDYYPHEHRPISINYRT
Return: 63.6 nM

Taken from patent US9540424B2.
